Test system: Human Peripheral Blood Mononuclear Cell
Assay: Suppressive action on production of mediator from human peripheral blood mononuclear cell
Assay type: cell-based
Details: subject C, LPS 10 ng/mL and INFα 1 U/mL, overnight, ELISA, read-out: IC50, IL-6 production
measured parameter: IC50 (nM)
Could you give me the number in nM? Just the number is fine.

Item under review: CCOC(=O)C1=CCOCC1S(=O)(=O)Nc1ccc(F)cc1Cl (stereo not shown) . Reported IC50?
35

----------
System: Human Peripheral Blood Mononuclear Cell
Test: Suppressive action on production of mediator from human peripheral blood mononuclear cell
Assay type: cell-based
Details: subject C, LPS 10 ng/mL and INFα 1 U/mL, overnight, ELISA, read-out: IC50, IL-8 production
measured parameter: pIC50
pIC50 field: float, defined as -log10 of concentration (mol/L).

Which pIC50 is listed for CCOC(=O)C1=CCOCC1S(=O)(=O)Nc1ccc(F)cc1Cl (stereo not shown) ?
7.09

----------
Test system: Human Peripheral Blood Mononuclear Cell
Assay: Suppressive action on production of mediator from human peripheral blood mononuclear cell
Type: cell-based
Conditions: subject B, LPS 10 ng/mL and INFα 1 U/mL, overnight, ELISA, read-out: IC50, IL-6 production
measured parameter: pIC50
Answer as the number alone; pIC50 is minus log10 of concentration in mol/L.

I'd like to know its pIC50. The compound in question is CCOC(=O)C1=CCOCC1S(=O)(=O)Nc1ccc(F)cc1Cl (stereo not shown) [test compound 2]
7.29

----------
Tested on: mouse macrophage cell line RAW264.7 cells
Experiment: Suppressive action on production of mediator from LPS stimulated macrophage
Assay type: cell-based
Settings: LPS 10 ng/ml, overnight culture, ELISA, read-out: IC50, MIP-2 production
measured parameter: pIC50
Scale: negative log10 of molar concentration, which is what pIC50 denotes.

What does the data say about its pIC50? Entry: CCOC(=O)C1=CCCC[C@H]1S(=O)(=O)Nc1ccc(F)cc1Cl
8.15
